# ASSAY COMMENT: CREB reporter modulators without forskolin, primary screen, cell-based, PC12, CRE-LacZ reporter, unstimulated (AID 1145)
# EXPERIMENTAL CONDITIONS: no forskolin, luminescence, 4.5 h, higher = more signal, called active from +8 up or from −8 down
Cut-off 2 on z-score, inclusive. At or above means met; below means not met.

Data request: Reported z-score at or above 2? O=C1C[C@@](C(=O)NCc2ccccc2)(c2ccc([N+](=O)[O-])cc2)[C@@H](c2ccc(CO)cc2I)N1CC12CC3CC(CC(C3)C1)C2
Data returned: not met

Data request: Reported z-score at or above 2? CCOC(=O)C1=CCC(c2ccccc2)N(S(=O)(=O)c2ccc([N+](=O)[O-])cc2)C1 (stereo not given)
Data returned: not met

Data request: Reported z-score at or above 2? C=C(CCCC)C(=O)CC[C@H](OC(=O)c1ccccc1-c1ccccc1C(=O)O)c1ccccc1OCCO
Data returned: met

Data request: Reported z-score at or above 2? CCCNC(=O)[C@@]1(Sc2ccc(C)cc2)CC(=O)N(C(C)C)[C@@H]1c1ccc(CO)cc1I
Data returned: not met

Data request: Reported z-score at or above 2? O=C1[C@@H]2[C@@H](CC(COc3ccccc3)=C3[C@@H](CCc4ccccc4)OB(O)C[C@@H]32)C(=O)N1Cc1ccccc1
Data returned: not met

----------
Could you please report measured composite z-score for the items listed next?
# TARGET: Alpha-bungarotoxin (Bungarus multicinctus) (UniProt P60615)
# Sequence (P60615 whole entry, looked up): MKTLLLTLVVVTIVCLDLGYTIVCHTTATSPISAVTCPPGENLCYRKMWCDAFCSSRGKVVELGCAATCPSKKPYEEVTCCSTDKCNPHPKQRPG
# ASSAY COMMENT: alpha-bungarotoxin binders on microarray, profiling panel, artefact control for SMM control protein annotation, biochemical, small-molecule microarray, Alexa647 label, 635/667 nm fluorescence (AID 1117)
# EXPERIMENTAL CONDITIONS: alpha-BTX-A647 binding fluorescence, higher = more signal
# output: bare number, no unit

Data request: Find the recorded composite z-score belonging to CC(C)[C@H]1NC(=O)[C@@]23C(=O)N[C@@H](Cc4ccccc4)C2[C@H](C)[C@@]2(C)O[C@H]2C3/C=C/C/C=C\CNC(=O)[C@H](Cc2ccccc2)NC1=O (stereo partly drawn) and report it.
Data returned: 0.807

Data request: Find the recorded composite z-score belonging to COCCOC(=O)N1C(=O)[C@@]2(c3cc(C#CCNC(N)=O)ccc31)[C@H](c1ccc(OCCO)cc1)N1[C@H](c3ccccc3)[C@H](c3ccccc3)OC(=O)[C@H]1[C@@H]2C(=O)NC[C@H](O)c1ccccc1 and report it.
Data returned: 1.61

Data request: Find the recorded composite z-score belonging to [N-]=[N+]=Nc1ccccc1[C@@H]1OC(c2ccc(OCCCO)cc2)=N[C@]1(Cc1ccccc1)C(=O)NCc1ccccc1 and report it.
Data returned: 2.92

----------
Could you please report measured z-score for the items listed next?
# ASSAY COMMENT: S. cerevisiae RM11-1a growth modifiers, primary screen, strain RM11-1a, OD600, basal, 24 h (AID 1177);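 further: cultures grown under basal conditions with no added stressor; test concentration not given here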
# EXPERIMENTAL CONDITIONS: OD600, 24 h, higher = more signal, called active from +8 up or from −8 down
# output: bare number, no unit

Data request: Find the recorded z-score belonging to CCOC(=O)C1=C[C@@H](C(C)(C)C)N(S(=O)(=O)c2ccc(C)cc2)[C@H]1c1ccccc1 and report it.
Data returned: 1.59

Data request: Find the recorded z-score belonging to CCCCCN1CC=CC23O[C@@H]4C=CCOC(=O)[C@@H]4[C@H]2C(=O)N(CCO)[C@@H]3C1=O (stereo partly drawn) and report it.
Data returned: -0.454

Data request: Find the recorded z-score belonging to CC(=O)n1cc(C(O)C2C=CC3C(=O)N(c4ccccc4)C(=O)C3N2Nc2ccc(C(C)C)cc2)c2ccccc21 (stereo not drawn) and report it.
Data returned: 1.36

Data request: Find the recorded z-score belonging to C=C(C(=O)CC[C@@H](OC(=O)c1ccccc1-c1ccccc1C(=O)O)c1ccccc1OCCO)C(C)C and report it.
Data returned: -0.639

Data request: Find the recorded z-score belonging to COc1ccc([Si](C)(C)[C@H]2[C@H](CCO)O[C@@]3(C(=O)N(Cc4ccccc4)c4ccc(N5C(=O)c6ccccc6Oc6ccccc65)cc43)[C@@H]2C)cc1 and report it.
Data returned: 3.48

Data request: Find the recorded z-score belonging to COc1cc(NN2C(C(O)C3CCCCC3)C=CC3C(=O)N(c4ccccc4)C(=O)C32)cc(OC)c1OC (stereo not drawn) and report it.
Data returned: 0.135

Data request: Find the recorded z-score belonging to CS(=O)(=O)CCOC(=O)C1=CC(CCCO)=CC(C2CC2)N(Cc2cccc(OC(F)(F)F)c2)C=C1C(=O)OCCS(C)(=O)=O (stereo not drawn) and report it.
Data returned: 0.416

Data request: Find the recorded z-score belonging to COc1cc(NN2C(C(O)c3ccccc3)C=CC3C(=O)N(C)C(=O)C32)cc(OC)c1OC (stereo not drawn) and report it.
Data returned: -0.0472

Data request: Find the recorded z-score belonging to COc1ccc(NC(=O)O[C@H]2[C@@H]3OC(=O)[C@H](Cc4cccc(Br)c4)C/C=C/C[C@@H](Cc4cccc(Br)c4)C(=O)O[C@H]3[C@@H](OC)O[C@@H]2CO)cc1 and report it.
Data returned: 0.604

Data request: Find the recorded z-score belonging to C=C(C)C1CCC(C(O)C2C=CC3C(=O)N(C)C(=O)C3N2Nc2cc(OC)c(OC)c(OC)c2)CC1 (stereo not drawn) and report it.
Data returned: 0.065

Data request: Find the recorded z-score belonging to NCCCCCNC(=O)[C@H]1C[C@H]2C(=O)N[C@@H](Cc3ccccc3)C(=O)N2[C@H]1c1ccc(O)cc1 and report it.
Data returned: -0.334

Data request: Find the recorded z-score belonging to COC(=O)C(CC#Cc1ccc2c(c1)[C@]1(C(=O)N2)[C@H](c2ccc(O)cc2)N2[C@H](c3ccccc3)[C@H](c3ccccc3)OC(=O)[C@H]2[C@@H]1C(=O)N1CCCCCCC1)C(=O)OC and report it.
Data returned: 0.27

Data request: Find the recorded z-score belonging to C#C[C@@H](CC)O[Si](C#CCCCC#N)(C(C)C)C(C)C and report it.
Data returned: -2.5

Data request: Find the recorded z-score belonging to [N-]=[N+]=Nc1ccccc1C[C@@]1(C(=O)O)N=C(c2ccc(OCCCO)cc2)O[C@@H]1c1ccccc1N=[N+]=[N-] and report it.
Data returned: -1.23

Data request: Find the recorded z-score belonging to O=C1OCCC/C=C\[C@H]2OC34C=CCN(c5ccc6ccccc6c5)C(=O)[C@H]3N(CCCO)C(=O)[C@@H]4C12 (stereo partly drawn) and report it.
Data returned: -1.1

Data request: Find the recorded z-score belonging to Cc1ccc(F)cc1S(=O)(=O)N[C@@H]1CCN(Cc2cccc3[nH]ccc23)C1 and report it.
Data returned: -0.367

Data request: Find the recorded z-score belonging to O=C1c2ccccc2[C@](Cc2ccccc2I)(C(=O)NC2CC2)[C@H](c2ccc(CO)cc2)N1Cc1ccccc1C(F)(F)F and report it.
Data returned: 0.108

Data request: Find the recorded z-score belonging to C=CCN1C(=O)[C@@]2(O[C@@H](CCO)[C@H]([Si](C)(C)c3ccc(OC)cc3)[C@H]2C)c2cc(N3CCOC3=O)ccc21 and report it.
Data returned: 4.47

Data request: Find the recorded z-score belonging to C=C(/C(=C/C[C@H](OC(=O)c1ccncc1)c1ccccc1OCCO)c1cnc2ccccc2c1)C(C)C and report it.
Data returned: -0.07

Data request: Find the recorded z-score belonging to COCCOC(=O)N1C(=O)[C@@]2(c3ccccc31)[C@H](c1ccc(OCCO)cc1)N1[C@H](c3ccccc3)[C@H](c3ccccc3)OC(=O)[C@H]1[C@@H]2C(=O)N1CCCCCCC1 and report it.
Data returned: 2

Data request: Find the recorded z-score belonging to CN(C)C(=O)[C@@]1(CCC(=O)OC(C)(C)C)N=C(c2ccc(OCCCO)cc2)O[C@H]1c1ccccc1CN=[N+]=[N-] and report it.
Data returned: -0.0065

Data request: Find the recorded z-score belonging to CC(C)C[C@@H]1NC(=O)[C@@]23C(=O)N[C@@H](Cc4ccccc4)C2[C@H](C)[C@@]2(C)O[C@H]2C3/C=C/C/C=C\CNC(=O)[C@@H](C)NC1=O (stereo partly drawn) and report it.
Data returned: -1.08

Data request: Find the recorded z-score belonging to Cc1ccc(C(C)CC(O)C2C=CC3C(=O)N(c4ccccc4)C(=O)C3N2Nc2ccc(C#N)cc2)o1 (stereo not drawn) and report it.
Data returned: -20.8

Data request: Find the recorded z-score belonging to C=C(/C(=C/C[C@@H](OC(=O)c1ccncc1)c1cccc(OCCO)c1)c1cnc2ccccc2c1)C(C)C and report it.
Data returned: 0.152

Data request: Find the recorded z-score belonging to COc1ccc(C#Cc2ccc3c(c2)[C@]2(C(=O)N3)[C@H](c3ccc(OCCO)cc3)N3[C@H](c4ccccc4)[C@H](c4ccccc4)OC(=O)[C@H]3[C@@H]2C(=O)N2CCc3cc(OC)c(OC)cc3C2)cc1 and report it.
Data returned: 2.33

Data request: Find the recorded z-score belonging to COCC(=C=CC[C@@H](O)c1cccc(OCCO)c1)CCO and report it.
Data returned: -0.357

Data request: Find the recorded z-score belonging to CCOC(=O)C[C@H]1[C@H](OC(=O)c2cc3ccccc3oc2=O)[C@@H](NC(=O)c2ccc3ccccc3c2)c2cc(OCCCO)ccc2N1C(=O)Cc1ccc(OC)cc1 and report it.
Data returned: 0.0085

Data request: Find the recorded z-score belonging to O=C1O[C@H](c2ccccc2)[C@H](c2ccccc2)N2[C@H]1[C@@H](C(=O)N1CCCCCCC1)[C@]1(C(=O)Nc3ccc(C#CC4(O)CCCCCC4)cc31)[C@H]2c1ccc(O)cc1 and report it.
Data returned: 0.74
